System: U251 CNS
Test: NCI tumour cell line growth inhibition, 48 h
Please enter satisfied where TGI is greater than or equal to 30 µM, and not satisfied where it is lower.

Examples from the recorded data:
COc1cccc(C2c3cc4c(cc3OC(C)(N3CCCC3)C2C)OCO4)c1 (stereo not given)	satisfied
C[C@H]1CN[C@@H]2[C@@H](C)[C@H]3[C@@H](C[C@H]4[C@@H]5CC[C@H]6C[C@@H](N)CC[C@]6(C)[C@H]5CC[C@]34C)O[C@@]2(O)C1	not satisfied
CN(C)/N=C1/CCC(C(F)(F)F)(C(F)(F)F)O1	satisfied

Does the compound CSc1ccsc1-c1sc(-c2cc(SC)c(-c3sc(-c4cc(SC)c(-c5sccc5SC)s4)cc3SC)s2)cc1SC have recorded TGI that is 30 µM or more?
satisfied

Does the compound C=C1CC/C=C(\C)CCC[C@H](C)[C@@H](O)[C@@H]2OC(=O)C(=C)[C@@H]2C[C@H]1O have recorded TGI that is 30 µM or more?
satisfied

Does the compound O=[N+]([O-])c1ccc(CI)cc1 have recorded TGI that is 30 µM or more?
not satisfied

----------
Tested on: A549 NSCLC
Experiment: NCI tumour cell line growth inhibition, 48 h; in the data active = GI50 below about 0.43 µM; inactive = the rest
Select the correct class. Options are active, inactive and nothing else.

C/C(=N\NC(=S)N1CCCCCC1)c1ccccn1	active
BrCc1cccc(C[P+](c2ccccc2)(c2ccccc2)c2ccccc2)c1	inactive
Cc1nc2cc(Nc3nc(Nc4ccc(F)cc4)nc(-c4cccs4)n3)ccc2n1Cc1ccccc1	inactive

Now take the following compound into account.
Entry COC(=O)c1ccc2c(c1)/C(=C\c1cc(Br)c(O)c(Br)c1)C(=O)N2 : call = ?
inactive

----------
GI50 listing for selected compounds.
System: HCC-2998 colon
Test: NCI tumour cell line growth inhibition, 48 h

O=C(NNc1ccccc1)C(=O)NNc1ccccc1	2.96 µM
CCOC(=O)/C=C/c1ccc(C#Cc2ccccc2)cc1	> 100 µM
CCN(Cc1ccc(F)cc1)c1ccc(CO)c(Br)c1	5.29 µM

Recorded GI50 for COc1ccccc1Nc1ncc(-c2ccccc2)o1 , please?
> 25 µM

Recorded GI50 for CC1CCN(C(=O)OCc2nc3nc(Cl)nc(N4CCOCC4)c3[nH]2)CC1 , please?
1.69 µM

Recorded GI50 for Cc1ccc2c(C3C(C#N)=C(N)Oc4cc5ccccc5cc43)cc(=O)oc2c1 (configuration not stated) , please?
3.91 µM

Recorded GI50 for Cc1ccc(Nc2oc(-c3ccccc3)nc2[P+](c2ccccc2)(c2ccccc2)c2ccccc2)cc1 , please?
1.03 µM

----------
log10 TGI listing for selected compounds.
Test system: NCI-H23 lung
Test: NCI tumour cell line growth inhibition, 48 h
Heads up, the numbers here are log10 of TGI in µM units.

Answered cases to consult:
CC1C=CN(N(C)C)C2=C1C(=O)c1cnccc1C2=O (configuration not stated)	-0.08
COc1cc(/C=C/C(=O)c2cccc(-n3cc(-c4ccc(Cl)cc4)[nH]c3=O)c2)ccc1O	1.39
C[Si](C)(C)/C(I)=C/CO	1.60

Recorded log10 TGI for COc1ccc(-c2cc(/C=C/C(=O)c3ccc(OC)c(OC)c3)[nH]n2)cc1 , please?
0.80

Recorded log10 TGI for CN(C)CCNC(=O)c1cccc2ccc(-c3ccc(F)cc3)nc12 , please?
1.23

----------
System: SW-620 colon
Experiment: NCI tumour cell line growth inhibition, 48 h
TGI listing for selected molecules.

COc1ccc(/C(=C\C=C(C#N)C#N)Sc2nc3ccccc3s2)cc1	> 50 µM
COc1cccc(C2CC23C(=O)NC(=O)NC3=O)c1 (centres undefined)	> 100 µM

Recorded TGI for CC(C)=CC1CC(=[N+]=[N-])C(=O)C1(C)C (centres undefined) , please?
> 100 µM

Recorded TGI for O=C1c2cccc3cccc(c23)C(=O)N1CCCCCN1CCN(CCCCCOc2ccc(-c3nc4ccc(N5CCOCC5)cc4[nH]3)cc2)CC1 , please?
4.21 µM

Recorded TGI for Cn1cc(-c2csc(-c3c[nH]c4ccc(Br)cc34)n2)c2cnccc21 , please?
3.46 µM

Recorded TGI for CCCC(=O)N1CCN(c2ccc3c(c2)OC(C)O3)CC1 (centres undefined) , please?
> 100 µM

Recorded TGI for COc1ccc(/C(Cl)=C(\C=O)c2ccc(OC)cc2)cc1 , please?
> 100 µM

Recorded TGI for COc1ccc(OC)c(/C=C(/C#N)c2ccccc2)c1 , please?
> 100 µM

Recorded TGI for CCC(=O)O[C@H]1CC[C@H]2[C@@H]3CCC4=C/C(=N/OC(=O)c5cccc6cc7ccccc7nc56)CC[C@]4(C)[C@H]3CC[C@]12C , please?
> 100 µM

Recorded TGI for CC1CCN(C(=O)OCc2nc3nc(Cl)nc(N4CCOCC4)c3[nH]2)CC1 , please?
2.07 µM

Recorded TGI for COC1CCCCN1C(=O)c1ccccc1 (centres undefined) , please?
> 25.3 µM

Recorded TGI for O=P1(c2ccccc2)Nc2ccccc2SSc2ccccc2N1 , please?
33.7 µM

Recorded TGI for C[Si](C)(C)/C(Br)=C\CCN1C(=O)CCC1=O , please?
> 100 µM

Recorded TGI for O=c1nc(N2CCNCC2)oc2cc(Cl)oc(=O)c12 , please?
21.1 µM

Recorded TGI for C(=C\c1ccc(-c2cn3cc(/C=C/C=N/NC4=NCCN4)ccc3n2)cc1)/C=N/NC1=NCCN1 , please?
0.77 µM

Recorded TGI for COC1(OC)CCCc2c1no[n+]2[O-] , please?
> 100 µM

Recorded TGI for NCC(=O)Nc1ccc(S(=O)(=O)O)c2cc(S(=O)(=O)O)cc(S(=O)(=O)O)c12 , please?
> 100 µM
